# System: LU-139 (Small Cell Lung Carcinoma)
# Test Name: combination Emax (second highest fraction inhibited in the dose matrix, 72 h); higher = more inhibition; extreme values may be limits of the assay
Readout Name: combination Emax
Reply with just the number.

-- ask # value lookup — system LU-139 (Small Cell Lung Carcinoma), readout combination Emax, item CC(=O)c1c(C)c2cnc(Nc3ccc(N4CCNCC4)cn3)nc2n(C2CCCC2)c1=O [Palbociclib] + Cn1cnc2c(F)c(Nc3ccc(Br)cc3Cl)c(C(=O)NOCCO)cc21 [Selumetinib] (first compound max 10 µM, 7x7, partner max 10 µM)
-- reply 0.282

-- ask Entry CCN(CCO)CCCOc1ccc2c(Nc3cc(CC(=O)Nc4cccc(F)c4)[nH]n3)ncnc2c1 [AZD2811] + O=C(c1cc(Cc2n[nH]c(=O)c3ccccc23)ccc1F)N1CCN(C(=O)C2CC2)CC1 [Olaparib] (first compound max 1 µM, 7x7, partner max 10 µM) please
-- reply 0.307

-- ask Entry CN(CCO)CC[C@H](CSc1ccccc1)Nc1ccc(S(=O)(=O)NC(=O)c2ccc(N3CCC([C@@H](O)c4ccccc4-c4ccc(Cl)cc4)CC3)cc2)cc1S(=O)(=O)C(F)(F)F [AZD4320] + CS(=O)(=O)CCNCc1ccc(-c2ccc3ncnc(Nc4ccc(OCc5cccc(F)c5)c(Cl)c4)c3c2)o1 [Lapatinib] (first compound max 1 µM, 7x7, partner max 10 µM) please
-- reply 0.985
